- Tested on: UACC-62 melanoma
- Protocol text: NCI tumour cell line growth inhibition, 48 h
Endpoint: TGI

COC(=O)C1=C(O)C(C(=O)OC)[C@]2(O)[C@@H](C(=O)OC)[C@H]1[C@H](C)[C@@H](c1ccccc1)[C@@H]2C(=O)OC (stereo partly drawn)    > 100 µM

// for each compound in input: emit TGI
1. CCN(CC)CCNC(=O)c1cc2cc(NC(=O)c3cc4cc(N)ccc4[nH]3)ccc2[nH]1
2. O=C1C(Cl)C(c2cc(Br)ccc2O)N1n1cnc2ccccc2c1=O (stereo not drawn)
3. CCOC(=O)C(=Cc1ccccc1Cl)C(=O)OCC

**Result**
["59.3 µM", "> 68 µM", "3.67 µM"]
